# MEASUREMENT PROTOCOL: recombinant barcode read abundance after kanamycin selection (control-corrected) (log10(CPM+1)); higher = more efficient recombination; sequences stand for … in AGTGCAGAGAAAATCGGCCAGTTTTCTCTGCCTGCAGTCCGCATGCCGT…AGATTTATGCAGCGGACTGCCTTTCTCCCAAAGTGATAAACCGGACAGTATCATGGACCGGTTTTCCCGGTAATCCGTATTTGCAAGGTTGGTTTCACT; site = the 11-nt target;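 also: IS621 recombinase and bridge RNA in Escherichia coli cells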
# cutoff 0.09 applies to recombinant barcode read abundance (log10); >= gives Satisfied, < gives Not satisfied

Example results:
# CHAIN SEQUENCE, ASSIGNED CLASS
measured = [
    ("CAGGCGTCTTGGGTTCTAACCTGTTGCCT (site CAGGCGACTAG)", "Satisfied"),
    ("GTACTGCCTTGGGTTCTAACCTGTTGCCT (site GTACGGCCTAG)", "Satisfied"),
    ("AATTGTCCTTGGGTTCTAACCTGTTGCGT (site AATTGTCCTAA)", "Not satisfied"),
    ("GGCACCACTTGGGTTCTAACCTGTTGCCG (site GGCACCACTCG)", "Satisfied"),
    ("ACCTTAGCTTGGGTTCTAACCTGTTGCTT (site TAGGCGACTTG)", "Not satisfied"),
]

Input line: Could you tell me if the measured recombinant barcode read abundance (log10) of AACCAGCCTTGGGTTCTAACCTGTTGCCT (site AACCAGCCTAG) reaches 0.09 or more?
Output line: Satisfied

Input line: Textbook exercise: given the entry GCACTAGCTTGGGTTCTAACCTGTTGCGT (site GCACTAACTAG) , state whether its recombinant barcode read abundance (log10) is greater than or equal to 0.09.
Output line: Satisfied

Reference source: the supplement of paper PMC11208160
